Tested on: Pseudomonas aeruginosa IID 1042
assay: minimum growth inhibition concentration, agar dilution
Type: cell-based
conditions: Pseudomonas aeruginosa, IID1042, Mueller-Hinton agar, read-out: MIC
Description: Germicidal activity of the compound prepared in Example 1 (Compound I) was evaluated by the minimum growth inhibition concentration method (based on the standard method stipulated by Japan Society of Chemotherapy) and the phenol coefficient method. A portion of the digluconate salt of the compound of Example 1 was dissolved in water and the solution was heated to dryness on a water bath. […]
Listed molecules paired with reported MIC
Report the figure in µg/mL without appending any unit label.

Some molecules with known MIC results, for comparison:
N=C(NCCNC(=N)NC(=N)Nc1ccc(C(F)(F)F)cc1)NC(=N)Nc1ccc(C(F)(F)F)cc1; 200
N=C(NCCCCCCCCNC(=N)NC(=N)Nc1cccc(C(F)(F)F)c1)NC(=N)Nc1cccc(C(F)(F)F)c1; 25
[H]/N=C(\N/C(=N/[H])NCCCCCCNC(=N)NC(=N)Nc1ccc(Cl)cc1)Nc1ccc(Cl)cc1 [CHXD, chlorhexidine, reference compound]; 100

[in] Give its MIC value. Item: N=C(NCCNC(=N)NC(=N)Nc1cccc(C(F)(F)F)c1)NC(=N)Nc1cccc(C(F)(F)F)c1
[out] 200

[in] Give its MIC value. Item: N=C(NCCCNC(=N)NC(=N)Nc1cccc(C(F)(F)F)c1)NC(=N)Nc1cccc(C(F)(F)F)c1
[out] 50

[in] Give its MIC value. Item: N=C(NCCCCCNC(=N)NC(=N)Nc1cccc(C(F)(F)F)c1)NC(=N)Nc1cccc(C(F)(F)F)c1
[out] 12.5

[in] Give its MIC value. Item: N=C(NCCCCCCCCCCCNC(=N)NC(=N)Nc1cccc(C(F)(F)F)c1)NC(=N)Nc1cccc(C(F)(F)F)c1
[out] 400

---

Tested on: Serratia marcescens IID 602
assay: minimum growth inhibition concentration, agar dilution
Assay type: cell-based
conditions: IID602, Mueller-Hinton agar, IID 602, read-out: MIC
measured-metric: MIC (µg/mL)
Report the figure in µg/mL without appending any unit label.

Some molecules with known MIC results, for comparison:
N=C(NCCCNC(=N)NC(=N)Nc1ccc(C(F)(F)F)cc1)NC(=N)Nc1ccc(C(F)(F)F)cc1 [n = 3 (p-position)]; 6.25
N=C(NCCCCCCCCCCCNC(=N)NC(=N)Nc1ccc(C(F)(F)F)cc1)NC(=N)Nc1ccc(C(F)(F)F)cc1 [n = 11 (p-position)]; 100

Next up:
[in] Give its MIC value. Item: N=C(NCCCCCCCCCCCNC(=N)NC(=N)Nc1cccc(C(F)(F)F)c1)NC(=N)Nc1cccc(C(F)(F)F)c1 [n = 11 (m-position)]
[out] 100

---

System: Escherichia coli IID 951
assay: minimum growth inhibition concentration, agar dilution
Assay type: cell-based
conditions: IID951, Mueller-Hinton agar, IID 951, read-out: MIC
Param label: returns label 1 when MIC < 3 µg/mL, returns label 0 otherwise, including exact equality.

N=C(NCCCCCNC(=N)NC(=N)Nc1cccc(C(F)(F)F)c1)NC(=N)Nc1cccc(C(F)(F)F)c1 [n = 5 (m-position)]; label 0
N=C(NCCCNC(=N)NC(=N)Nc1ccc(C(F)(F)F)cc1)NC(=N)Nc1ccc(C(F)(F)F)cc1 [n = 3 (p-position)]; label 1
N=C(NCCCCCCCCNC(=N)NC(=N)Nc1cccc(C(F)(F)F)c1)NC(=N)Nc1cccc(C(F)(F)F)c1 [n = 8 (m-position)]; label 1

[in] Confirm or reject: MIC of N=C(NCCCNC(=N)NC(=N)Nc1cccc(C(F)(F)F)c1)NC(=N)Nc1cccc(C(F)(F)F)c1 [n = 3 (m-position)] lies strictly below 3 µg/mL
[out] label 0

[in] Confirm or reject: MIC of N=C(NCCCCCCNC(=N)NC(=N)Nc1cccc(C(F)(F)F)c1)NC(=N)Nc1cccc(C(F)(F)F)c1 [Ex. 5] lies strictly below 3 µg/mL
[out] label 1

[in] Confirm or reject: MIC of N=C(NCCCCCNC(=N)NC(=N)Nc1ccc(C(F)(F)F)cc1)NC(=N)Nc1ccc(C(F)(F)F)cc1 [n = 5 (p-position)] lies strictly below 3 µg/mL
[out] label 0

[in] Confirm or reject: MIC of N=C(NCCCCCCCCNC(=N)NC(=N)Nc1ccc(C(F)(F)F)cc1)NC(=N)Nc1ccc(C(F)(F)F)cc1 [n = 8 (p-position)] lies strictly below 3 µg/mL
[out] label 1

[in] Confirm or reject: MIC of N=C(NCCNC(=N)NC(=N)Nc1ccc(C(F)(F)F)cc1)NC(=N)Nc1ccc(C(F)(F)F)cc1 [n = 2 (p-position)] lies strictly below 3 µg/mL
[out] label 0

[in] Confirm or reject: MIC of N=C(NCCNC(=N)NC(=N)Nc1cccc(C(F)(F)F)c1)NC(=N)Nc1cccc(C(F)(F)F)c1 [n = 2 (m-position)] lies strictly below 3 µg/mL
[out] label 0

[in] Confirm or reject: MIC of N=C(NCCCCCCNC(=N)NC(=N)Nc1ccc(C(F)(F)F)cc1)NC(=N)Nc1ccc(C(F)(F)F)cc1 [Ex. 1] lies strictly below 3 µg/mL
[out] label 0

[in] Confirm or reject: MIC of N=C(NCCCCCCCCCCCNC(=N)NC(=N)Nc1cccc(C(F)(F)F)c1)NC(=N)Nc1cccc(C(F)(F)F)c1 [n = 11 (m-position)] lies strictly below 3 µg/mL
[out] label 0

[in] Confirm or reject: MIC of N=C(NCCCCCCCCCCCNC(=N)NC(=N)Nc1ccc(C(F)(F)F)cc1)NC(=N)Nc1ccc(C(F)(F)F)cc1 [n = 11 (p-position)] lies strictly below 3 µg/mL
[out] label 0

---

System: Serratia marcescens IID 602
assay: minimum growth inhibition concentration, agar dilution
Assay type: cell-based
conditions: IID602, Mueller-Hinton agar, IID 602, read-out: MIC
measured-metric: MIC (µg/mL)
Report the figure in µg/mL without appending any unit label.

N=C(NCCCCCCNC(=N)NC(=N)Nc1cccc(C(F)(F)F)c1)NC(=N)Nc1cccc(C(F)(F)F)c1; 6.25

[in] Give its MIC value. Item: N=C(NCCCCCCCCNC(=N)NC(=N)Nc1cccc(C(F)(F)F)c1)NC(=N)Nc1cccc(C(F)(F)F)c1
[out] 6.25

[in] Give its MIC value. Item: N=C(NCCCCCNC(=N)NC(=N)Nc1cccc(C(F)(F)F)c1)NC(=N)Nc1cccc(C(F)(F)F)c1
[out] 6.25

[in] Give its MIC value. Item: N=C(NCCCNC(=N)NC(=N)Nc1cccc(C(F)(F)F)c1)NC(=N)Nc1cccc(C(F)(F)F)c1
[out] 12.5

[in] Give its MIC value. Item: N=C(NCCCCCCCCNC(=N)NC(=N)Nc1ccc(C(F)(F)F)cc1)NC(=N)Nc1ccc(C(F)(F)F)cc1
[out] 6.25

[in] Give its MIC value. Item: N=C(NCCCCCCNC(=N)NC(=N)Nc1ccc(C(F)(F)F)cc1)NC(=N)Nc1ccc(C(F)(F)F)cc1
[out] 6.25

[in] Give its MIC value. Item: N=C(NCCNC(=N)NC(=N)Nc1cccc(C(F)(F)F)c1)NC(=N)Nc1cccc(C(F)(F)F)c1
[out] 50

[in] Give its MIC value. Item: N=C(NCCCCCNC(=N)NC(=N)Nc1ccc(C(F)(F)F)cc1)NC(=N)Nc1ccc(C(F)(F)F)cc1
[out] 6.25

[in] Give its MIC value. Item: N=C(NCCNC(=N)NC(=N)Nc1ccc(C(F)(F)F)cc1)NC(=N)Nc1ccc(C(F)(F)F)cc1
[out] 50

---

Listed molecules paired with reported MIC
System: Pseudomonas aeruginosa IID 1042
assay: minimum growth inhibition concentration, agar dilution
Type: cell-based
conditions: Pseudomonas aeruginosa, IID1042, Mueller-Hinton agar, read-out: MIC
Report the figure in µg/mL without appending any unit label.

N=C(NCCCCCNC(=N)NC(=N)Nc1ccc(C(F)(F)F)cc1)NC(=N)Nc1ccc(C(F)(F)F)cc1; 12.5
N=C(NCCCCCCCCNC(=N)NC(=N)Nc1ccc(C(F)(F)F)cc1)NC(=N)Nc1ccc(C(F)(F)F)cc1; 25
N=C(NCCCCCCCCCCCNC(=N)NC(=N)Nc1ccc(C(F)(F)F)cc1)NC(=N)Nc1ccc(C(F)(F)F)cc1; 400

[in] Give its MIC value. Item: N=C(NCCCCCCNC(=N)NC(=N)Nc1cccc(C(F)(F)F)c1)NC(=N)Nc1cccc(C(F)(F)F)c1
[out] 25

[in] Give its MIC value. Item: N=C(NCCCNC(=N)NC(=N)Nc1ccc(C(F)(F)F)cc1)NC(=N)Nc1ccc(C(F)(F)F)cc1
[out] 50

[in] Give its MIC value. Item: N=C(NCCCCCCNC(=N)NC(=N)Nc1ccc(C(F)(F)F)cc1)NC(=N)Nc1ccc(C(F)(F)F)cc1
[out] 12.5
